Assay: Stimulation of alkaline phosphatase activity in mouse calvarial osteoblasts after 48 hrs by spectrophotometric analysis

# COMPOUND, UNITS LABEL, EC50
data = [
    ("CCC(C)c1cc(C2C(C(=O)OC)=C(C)NC(C)=C2C(=O)OC)cc2cc(C(=O)OC)c(=O)oc12 (centres undefined)", "nM", 1190),
    ("CCOC(=O)c1cc2cc(C=O)cc(C(C)CC)c2oc1=O (centres undefined)", "nM", 1490),
    ("CCOC(=O)c1cc2cc(C3C(C(=O)OC)=C(C)NC4=C3C(=O)CC(C)(C)C4)cc(C(C)CC)c2oc1=O (racemic)", "nM", 1190),
    ("CCOC(=O)C1=C(C)NC2=C(C(=O)CC(C)(C)C2)C1c1cc(C(C)CC)c2oc(=O)c(C(=O)OCC)cc2c1 (racemic)", "nM", 1280),
]

---

Experiment: Stimulation of alkaline phosphatase activity in mouse calvarial osteoblasts after 48 hrs by spectrophotometric analysis
pEC50: −log10 of the molar value.
pEC50 by entry:

# COMPOUND, pEC50
data = [
    ("CCOC(=O)C1=C(C)NC2=C(C(=O)CCC2)C1c1cc(C(C)CC)c2oc(=O)c(C(=O)OCC)cc2c1 (racemic)", 6.00),
    ("CCOC(=O)C1=C(C)NC(C)=C(C(=O)OCC)C1c1cc(C(C)CC)c2oc(=O)c(C(=O)OC)cc2c1 (stereo not drawn)", 5.94),
    ("CCOC(=O)c1cc2cc(C3C(C(=O)OC)=C(C)NC4=C3C(=O)CCC4)cc(C(C)(C)C)c2oc1=O (racemic)", 5.88),
    ("COC(=O)C1=C(C)NC2=C(C(=O)CCC2)C1c1cc(C(C)(C)C)c2oc(=O)c(C(=O)OC)cc2c1 (racemic)", 5.87),
    ("CCOC(=O)C1=C(C)NC2=C(C(=O)CCC2)C1c1cc(C(C)(C)C)c2oc(=O)c(C(=O)OC)cc2c1 (racemic)", 5.90),
    ("CCOC(=O)C1=C(C)NC(C)=C(C(=O)OCC)C1c1cc(C(C)(C)C)c2oc(=O)c(C(=O)OC)cc2c1", 5.96),
    ("CCC(C)c1cc(C2C(C(=O)OC)=C(C)NC3=C2C(=O)CCC3)cc2cc(C(=O)OC)c(=O)oc12 (racemic)", 5.81),
    ("COC(=O)C1=C(C)NC(C)=C(C(=O)OC)C1c1ccccc1[N+](=O)[O-]", 5.84),
    ("CCOC(=O)C1=C(C)NC2=C(C(=O)CC(C)(C)C2)C1c1cc(C(C)CC)c2oc(=O)c(C(=O)OC)cc2c1 (racemic)", 6.00),
    ("CCOC(=O)C1=C(C)NC(C)=C(C(=O)OCC)C1c1cc(C(C)CC)c2oc(=O)c(C(=O)OCC)cc2c1 (stereo not drawn)", 5.91),
    ("COC(=O)C1=C(C)NC2=C(C(=O)CC(C)(C)C2)C1c1cc(C(C)(C)C)c2oc(=O)c(C(=O)OC)cc2c1 (racemic)", 5.82),
    ("CCOC(=O)C1=C(C)NC2=C(C(=O)CCC2)C1c1cc(C(C)(C)C)c2oc(=O)c(C(=O)OCC)cc2c1 (racemic)", 5.87),
    ("CCOC(=O)c1cc2cc(C3C(C(=O)OC)=C(C)NC4=C3C(=O)CC(C)(C)C4)cc(C(C)(C)C)c2oc1=O (racemic)", 5.96),
    ("CCOC(=O)c1cc2cc(C3C(C(=O)OC)=C(C)NC(C)=C3C(=O)OC)cc(C(C)(C)C)c2oc1=O", 5.98),
    ("CCOC(=O)c1cc2cc(C3C(C(=O)OC)=C(C)NC4=C3C(=O)CCC4)cc(C(C)CC)c2oc1=O (racemic)", 5.91),
    ("CCOC(=O)C1=C(C)NC2=C(C(=O)CC(C)(C)C2)C1c1cc(C(C)(C)C)c2oc(=O)c(C(=O)OCC)cc2c1 (racemic)", 5.81),
    ("CCOC(=O)c1cc2cc(C3C(C(=O)OC)=C(C)NC(C)=C3C(=O)OC)cc(C(C)CC)c2oc1=O (stereo not drawn)", 5.82),
    ("CCOC(=O)C1=C(C)NC2=C(C(=O)CCC2)C1c1cc(C(C)CC)c2oc(=O)c(C(=O)OC)cc2c1 (stereo not drawn)", 5.93),
]
